- Tested on: COLO 205
- protocol.description: NCI tumour cell line growth inhibition, 48 h
Activity calls are given as the source filed them. No stated cut-off is given here; in the data, active = GI50 up to about 1.1 µM and inactive = higher.
Pick one and only one: active, inactive

Which outcome was assigned to CC(C)C[C@H](NC(=O)[C@H](CCc1ccccc1)NC(=O)c1ccc2ccccc2n1)B(O)O in this test?
active

Tell me the recorded outcome of this test for CCCCCCn1c(SC)nc(COC(=O)NC)c1COC(=O)NC .
inactive

Write down the call the test reported for this compound. Item: CCN(CC)C1Oc2cc3c(cc2C(c2cccc(OC)c2O)C1C)OCO3 (stereo not given)
inactive

Hi, sorry to bother you, what did the test record for CC(C)(C)c1ccc(OCCOc2ccc(C(C)(C)C)cc2N)c(N)c1 ?
inactive

Check the results log: what was the call for Cc1cc(-c2cscn2)c(O)c([N+](=O)[O-])c1 ?
inactive

What was the test verdict on COc1cc2c(cc1OS(C)(=O)=O)N=C[C@@H]1CCCN1C2=O ?
inactive

What did this assay record as the result for COC(=O)c1cc2/c(=N/O)c3ccccc3sc2o1 ?
inactive

For this compound, state the assay outcome: O=C(NCCCNCCN1C(=O)c2cccc3cc([N+](=O)[O-])cc(c23)C1=O)c1cc(-c2ccccc2)nc2ccccc12
inactive

How did this test come out for N#C/N=C(/N)NCO ?
inactive

How was CCn1c2ccccc2c2ccc(C3C(C(=O)OC)=C(C)NC(C)=C3C(=O)OC)cc21 classified in this test?
inactive

---

- Tested on: NCI/ADR-RES
- protocol.description: NCI tumour cell line growth inhibition, 48 h
Active and inactive are the calls of the source. Rule as the data show it: active = GI50 up to about 1.1 µM and inactive = higher.
// classify into active, inactive

Identify the outcome logged in this assay for the compound shown: C#CCn1c(I)cc2c(c1=O)COC(=O)[C@]2(O)CC
inactive

Assay outcome for COc1ccc(NC(C)=O)c(C(=O)CCNC(C)=O)c1 : what was it?
inactive

Record lookup: outcome of this test for CN(C)/C=N/c1ccc2c3c(cccc13)-c1ccccc1-2 ?
inactive

# fetch the recorded call for Cc1c(/C=N\NC(=S)NCCNC(=S)N/N=C\c2c(C)n(C)n(-c3ccccc3)c2=O)c(=O)n(-c2ccccc2)n1C here
inactive

Per the records of this test, what outcome belongs to Nc1ccc(/C=C/c2ccc3cccnc3c2)cc1 ?
inactive

Hi, do you know how Cc1cc2nc3ccc(N(C)C)cc3[s+]c2cc1N [TOLONIUM CHLORIDE] came out in this test?
inactive

I'd appreciate the recorded outcome for CC1=CC[C@@]2(C)CC[C@](O)(C(C)C)C2C(OC(=O)c2ccccc2)C1 (some centres not stated) from this test.
inactive

How did this test come out for CC(C)(C)NC(=O)CCC1C(C(=O)NC(C)(C)C)C2(Cl)C(Cl)=C(Cl)C1(Cl)C2(Cl)Cl (configuration not stated) ?
inactive

Hey, what did the test say about O=Cc1ccc2ccocc1-2 ?
inactive

What is the recorded call for this compound in the test? Cc1cc(S(=O)(=O)NC2=NNC(C)CN2)c(S)cc1Cl (configuration not stated)
inactive

Each compound tested received a call. Report the one for CC1=C[P+](c2ccccc2)(c2ccccc2)c2ccccc2O1 .
inactive

Tell me the recorded outcome of this test for C[n+]1c(-c2ccc(/C=C/C=N\NC(=O)c3ccc(C(=O)N/N=C\C=C\c4ccc(-c5cn6ccccc6[n+]5C)cc4)cc3)cc2)cn2ccccc21 .
inactive

Identify the outcome logged in this assay for the compound shown: COC(=O)Nc1nc2cc(S(=O)(=O)n3nnc4ccccc43)ccc2[nH]1
inactive

Look up the recorded call for CN1CCN(CCCN)CC1 in this test.
inactive

# fetch the recorded call for COC(=O)c1cc2/c(=N/O)c3ccccc3sc2o1 here
inactive

What is the recorded call for this compound in the test? COc1c(O)cc(O)c2c(=O)cc(-c3ccccc3)oc12 [WOGONIN]
inactive

What classification did CO/N=C(\C)CCC#Cc1ccccc1C(=O)OC end up with in this test?
inactive

Just curious, what result did CC(C)C[C@H](NC(=O)[C@H](CCc1ccccc1)NC(=O)c1ccc2ccccc2n1)B(O)O get here?
active

What did this assay record as the result for O=C(N[C@@H](c1ccccc1)[C@@H](O)C(=O)OCc1ccc2c(c1)OCO2)c1ccccc1 ?
inactive

Field: outcome | Entry: O=C1N[C@@H]2c3c(csc3Br)C(=O)[C@@H]2O1
inactive

# fetch the recorded call for CC(C)(C)/N=C1\C(=O)C2(C)CCC1C2(C)C (configuration not stated) here
inactive

In this assay, the call recorded for O=C(O)C(Cl)(c1ccccc1)c1ccccc1 was what?
inactive

---

- Test system: ACHN
- protocol.description: NCI tumour cell line growth inhibition, 48 h
Activity calls are given as the source filed them. Cut-off read from the data, not from the text of the source: active = GI50 up to about 1.1 µM and inactive = higher.
Record form. Attribute: GI50. Fill in for each entry.

Can you share its GI50? I mean this compound: CCc1ccccc1NC(=O)CCc1n[nH]c(=S)o1
> 100 µM (inactive)

Return reported GI50; argument: C#C[C@]1(O)CC[C@H]2[C@@H]3CCC4=C/C(=N/NC(=O)c5cccc6cc7ccccc7nc56)CC[C@@H]4[C@H]3CC[C@@]21CC
> 100 µM (inactive)

Look up GI50: COc1ccc(-c2c(N)n(-c3cccc(C(=O)O)c3)c(=O)c3cc([N+](=O)[O-])ccc23)cc1
> 100 µM (inactive)

Name the recorded GI50 for Cc1cccc(C(C)C)c1NC(=O)CC1C(=O)Nc2ccccc2S1(=O)=O (stereo not given) .
22.9 µM (inactive)

Please report the recorded GI50 for CCOC(=O)C1Nc2ccccc2[C@H]2OCC[C@@H]12 (stereo not given in full) .
> 100 µM (inactive)

---

- System: SK-MEL-28
- protocol.description: NCI tumour cell line growth inhibition, 48 h
The source made the active and inactive calls. Rule as the data show it: active = GI50 up to about 1.1 µM and inactive = higher.
Exercise: for every item that follows, state its recorded GI50.

Reported GI50, compound O=C(/C=C\c1cccc2ccccc12)c1cccs1 : ____
14.3 µM (inactive)

I have this compound here, N#Cc1nc(CCCN2C(=O)c3ccccc3C2=O)oc1N , and I need its recorded GI50.
> 100 µM (inactive)

Dear colleague, I am looking for the recorded GI50 of the following compound: CC(=O)O[C@H]1CC[C@@]2(C)C(=CC[C@@H]3C2CC[C@]2(C)Nc4c(cnn4-c4ccccc4)CC32)C1 (stereo partly specified)
10.4 µM (inactive)

Look at this compound and give its reported GI50. Cc1ccc(C(=O)O)c(CC2Cc3c(C)cccc3C2=O)c1 (stereo unspecified)
> 100 µM (inactive)

Which GI50 reading was recorded for the compound Cc1ccc(/C=C2/N/C(=N\N=C/c3ccccc3)NC2=O)cc1 ?
36.4 µM (inactive)

I'd like to know its GI50. The compound in question is CS(=O)(=O)c1nc(-c2cc3c(c(S(C)(=O)=O)n2)CCCC3)cc2c1CCCCC2
> 100 µM (inactive)

---

- System: SNB-75
- protocol.description: NCI tumour cell line growth inhibition, 48 h
The source made the active and inactive calls. Rule as the data show it: active = GI50 up to about 1.1 µM and inactive = higher.
property.name: GI50

Requested read-out: GI50. Entry: CCOC(=O)NC(=O)c1cn(CCSCCOC(=O)NCCCCCCNC(=O)OCCSCCn2cc(C(=O)NC(=O)OCC)c(=O)n(C)c2=O)c(=O)n(C)c1=O
> 100 µM (inactive)

Field request: GI50 | item: CCOC(=O)C1=C(C)N(NC(N)=O)C(C)(O)C12CCOC2=O (centres undefined)
> 100 µM (inactive)

Give its GI50 value. Item: COc1c(C)c2c(c(=O)c3c(C)cccc3n2C)c2c1c(=O)c1c(C)cccc1n2C
> 10 µM (inactive)

Entry C/C(=N/O)c1cccc(Nc2nc3ccc(Cl)cc3c3[nH]c4ccccc4c23)c1 : reported GI50 = ?
< 0.01 µM (active)

State the recorded GI50 for this entry: Cc1cn(CCCCCCC2=NCCCN2)c(=O)[nH]c1=O
> 100 µM (inactive)

For the molecule O=C(NCCCNCCN1C(=O)c2cccc3cc([N+](=O)[O-])cc(c23)C1=O)c1cc(-c2ccccc2)nc2ccccc12 , what GI50 is on record?
3.62 µM (inactive)

Item Cc1cccc(C(C)(C)C)c1NC(=O)CCc1nnc(S)[nH]1 has what recorded GI50?
> 100 µM (inactive)

Would you mind telling me what GI50 value was observed for N=C(N)SCC(=O)O ?
> 100 µM (inactive)

// GI50 lookup, key: CCOC(=O)c1ccc(-n2cnc(-c3ccc([N+](=O)[O-])cc3)c2)cc1
40.6 µM (inactive)

Requested read-out: GI50. Entry: O=C1CC(=O)NC(NN2C(=O)/C(=C/C(=O)c3ccco3)N=C2c2ccccc2)=N1
22.2 µM (inactive)

Dear colleague, I am looking for the recorded GI50 of the following molecule: N/C(=N\Nc1nc2cc([N+](=O)[O-])ccc2o1)c1ccccn1
0.817 µM (active)

Entry O=C(CN1CCCCC1)c1ccc2c(c1)Sc1ccccc1O2 : reported GI50 = ?
11.6 µM (inactive)

Would you kindly share the measured GI50 for COc1ccc2nc3cc(Cl)ccc3c(NCCC(=O)OCC(O)C(O)C(O[C@H](C)C(=O)NC(C)C(=O)NC(CCC(N)=O)C(=O)OCc3ccccc3)C(C=O)NC(C)=O)c2c1 (some centres undefined) ?
16.1 µM (inactive)

Quick one: GI50 for COc1ccc(NC(=O)CC(=O)N2N=C(C)C(/N=N/c3ccc(C(=O)O)cc3)C2=O)cc1 (centres undefined) ?
77.3 µM (inactive)
